These data points were gathered from BigSolDB 2.1.

# measurementConditions: in 2-(2-butoxyethoxy)ethanol, 305.15 K
quantityMeasured: solubility (mole fraction)

Form field: reported solubility (mole fraction) of `O=C(O)c1ccccc1`
0.304

* * *

# measurementConditions: in sulfolane, 343.15 K
quantityMeasured: solubility (mole fraction)
Would you mind answering with just the numeric figure?

Form field: reported solubility (mole fraction) of `O=C(O)c1ccccc1`
0.315

* * *

# measurementConditions: in propionic acid, 317.15 K
quantityMeasured: solubility (mole fraction)
Would you mind answering with just the numeric figure?

Form field: reported solubility (mole fraction) of `O=C(O)c1ccccc1`
0.251

* * *

# measurementConditions: in m-xylene, 323.15 K
quantityMeasured: solubility (mole fraction)
Would you mind answering with just the numeric figure?

Form field: reported solubility (mole fraction) of `O=C(O)c1ccccc1`
0.173

* * *

# measurementConditions: in n-octane, 322.35 K
quantityMeasured: solubility (mole fraction)
Would you mind answering with just the numeric figure?

Form field: reported solubility (mole fraction) of `O=C(O)c1ccccc1`
0.033

* * *

# measurementConditions: in ethylene glycol, 310.15 K
quantityMeasured: solubility (mole fraction)
Would you mind answering with just the numeric figure?

Form field: reported solubility (mole fraction) of `O=C(O)c1ccccc1`
0.097

* * *

# measurementConditions: in 2-(2-butoxyethoxy)ethanol, 326.15 K
quantityMeasured: solubility (mole fraction)
Would you mind answering with just the numeric figure?

Form field: reported solubility (mole fraction) of `O=C(O)c1ccccc1`
0.409

* * *

# measurementConditions: in propionic acid, 325.15 K
quantityMeasured: solubility (mole fraction)

Form field: reported solubility (mole fraction) of `O=C(O)c1ccccc1`
0.293

* * *

# measurementConditions: in p-xylene, 331.15 K
quantityMeasured: solubility (mole fraction)
Would you mind answering with just the numeric figure?

Form field: reported solubility (mole fraction) of `O=C(O)c1ccccc1`
0.218

* * *

# measurementConditions: in diethylene glycol, 324.15 K
quantityMeasured: solubility (mole fraction)
Would you mind answering with just the numeric figure?

Form field: reported solubility (mole fraction) of `O=C(O)c1ccccc1`
0.3

* * *

# measurementConditions: in DMAc, 315.15 K
quantityMeasured: solubility (mole fraction)
Would you mind answering with just the numeric figure?

Form field: reported solubility (mole fraction) of `O=C(O)c1ccccc1`
0.496

* * *

# measurementConditions: in ethylene glycol, 300.95 K
quantityMeasured: solubility (mole fraction)

Form field: reported solubility (mole fraction) of `O=C(O)c1ccccc1`
0.0604

* * *

# measurementConditions: in p-xylene, 335.15 K
quantityMeasured: solubility (mole fraction)
Would you mind answering with just the numeric figure?

Form field: reported solubility (mole fraction) of `O=C(O)c1ccccc1`
0.244

* * *

# measurementConditions: in o-xylene, 303.15 K
quantityMeasured: solubility (mole fraction)

Form field: reported solubility (mole fraction) of `O=C(O)c1ccccc1`
0.0853

* * *

# measurementConditions: in sulfolane, 314.15 K
quantityMeasured: solubility (mole fraction)
Would you mind answering with just the numeric figure?

Form field: reported solubility (mole fraction) of `O=C(O)c1ccccc1`
0.138

* * *

# measurementConditions: in sulfolane, 318.65 K
quantityMeasured: solubility (mole fraction)
Would you mind answering with just the numeric figure?

Form field: reported solubility (mole fraction) of `O=C(O)c1ccccc1`
0.156

* * *

# measurementConditions: in ethylene glycol, 306.65 K
quantityMeasured: solubility (mole fraction)
Would you mind answering with just the numeric figure?

Form field: reported solubility (mole fraction) of `O=C(O)c1ccccc1`
0.0823

* * *

# measurementConditions: in sulfolane, 329.15 K
quantityMeasured: solubility (mole fraction)
Would you mind answering with just the numeric figure?

Form field: reported solubility (mole fraction) of `O=C(O)c1ccccc1`
0.216

* * *

# measurementConditions: in cyclohexanone, 316.15 K
quantityMeasured: solubility (mole fraction)
Would you mind answering with just the numeric figure?

Form field: reported solubility (mole fraction) of `O=C(O)c1ccccc1`
0.29

* * *

# measurementConditions: in decalin, 325.15 K
quantityMeasured: solubility (mole fraction)
Would you mind answering with just the numeric figure?

Form field: reported solubility (mole fraction) of `O=C(O)c1ccccc1`
0.0495

* * *

# measurementConditions: in cyclohexanone, 288.95 K
quantityMeasured: solubility (mole fraction)
Would you mind answering with just the numeric figure?

Form field: reported solubility (mole fraction) of `O=C(O)c1ccccc1`
0.181

* * *

# measurementConditions: in o-xylene, 316.15 K
quantityMeasured: solubility (mole fraction)
Would you mind answering with just the numeric figure?

Form field: reported solubility (mole fraction) of `O=C(O)c1ccccc1`
0.139

* * *

# measurementConditions: in p-xylene, 320.65 K
quantityMeasured: solubility (mole fraction)
Would you mind answering with just the numeric figure?

Form field: reported solubility (mole fraction) of `O=C(O)c1ccccc1`
0.148

* * *

# measurementConditions: in ethylene glycol, 303.15 K
quantityMeasured: solubility (mole fraction)
Would you mind answering with just the numeric figure?

Form field: reported solubility (mole fraction) of `O=C(O)c1ccccc1`
0.0689

* * *

# measurementConditions: in p-xylene, 295.15 K
quantityMeasured: solubility (mole fraction)
Would you mind answering with just the numeric figure?

Form field: reported solubility (mole fraction) of `O=C(O)c1ccccc1`
0.0628

* * *

# measurementConditions: in m-xylene, 312.65 K
quantityMeasured: solubility (mole fraction)
Would you mind answering with just the numeric figure?

Form field: reported solubility (mole fraction) of `O=C(O)c1ccccc1`
0.117

* * *

# measurementConditions: in ethylene glycol, 320.15 K
quantityMeasured: solubility (mole fraction)
Would you mind answering with just the numeric figure?

Form field: reported solubility (mole fraction) of `O=C(O)c1ccccc1`
0.14

* * *

# measurementConditions: in n-octane, 313.15 K
quantityMeasured: solubility (mole fraction)

Form field: reported solubility (mole fraction) of `O=C(O)c1ccccc1`
0.024
